test.system: PKCε (Homo sapiens, UniProt Q02156)
Construct: purchased Calbiochem
Sequence (Q02156 whole entry): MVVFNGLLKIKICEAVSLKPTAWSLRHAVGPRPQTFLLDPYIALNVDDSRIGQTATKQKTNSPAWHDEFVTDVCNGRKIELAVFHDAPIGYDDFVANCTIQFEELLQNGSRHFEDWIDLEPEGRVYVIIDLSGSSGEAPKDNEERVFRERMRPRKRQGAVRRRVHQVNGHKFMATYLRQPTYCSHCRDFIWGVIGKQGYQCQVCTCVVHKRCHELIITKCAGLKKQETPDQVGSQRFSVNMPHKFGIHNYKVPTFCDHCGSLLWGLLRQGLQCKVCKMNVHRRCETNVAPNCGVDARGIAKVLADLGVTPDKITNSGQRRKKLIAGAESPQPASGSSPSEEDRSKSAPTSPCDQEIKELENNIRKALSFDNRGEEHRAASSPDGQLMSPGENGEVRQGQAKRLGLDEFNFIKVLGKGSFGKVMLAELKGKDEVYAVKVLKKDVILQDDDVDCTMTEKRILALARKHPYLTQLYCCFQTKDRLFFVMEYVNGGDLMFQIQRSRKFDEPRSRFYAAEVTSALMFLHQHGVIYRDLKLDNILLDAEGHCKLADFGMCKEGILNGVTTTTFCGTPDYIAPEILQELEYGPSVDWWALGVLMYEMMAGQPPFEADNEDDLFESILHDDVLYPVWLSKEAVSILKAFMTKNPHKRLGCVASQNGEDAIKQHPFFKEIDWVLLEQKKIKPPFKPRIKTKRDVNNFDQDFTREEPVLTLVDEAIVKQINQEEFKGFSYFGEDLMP
test.method.notes: PKC assay with purified PKCε
Type: biochemical
applied.conditions: preincubated five minutes, radiometric
quantity.measured: effect on purified PKCε (FIG. 7, FIG. 8)

Consider the following illustrative entries.
{"columns": ["compound", "effect on purified PKCε (FIG. 7, FIG. 8)"],
 "data": [
  ["CCCCCC1CC1CC1CC1CCCCCCCCO (stereo not drawn)", "little or no effect"],
  ["CCCCCC1OC1C/C=C\\CCCCCCCC(=O)OC (stereo in doubt)", "little or no effect"],
  ["CCC1CC1CC1CC1CC1CC1CC1CC1CC1CC1CCCC(=O)OC (stereo not drawn)", "activated"],
  ["CCC1CC1CC1CC1CC1CC1CCCCCCCCO (stereo not drawn)", "little or no effect"],
  ["CCC1CC1CC1CC1CC1CC1CC1CC1CC1CC1CC1CC1CCC(=O)OC (stereo not drawn)", "activated"]
]}

Okay, now this compound:
For CCCCCC1CC1CC1CC1CC1CC1CC1CC1CCCC(=O)OC (stereo not drawn) , what is its reported effect on purified PKCε (FIG. 7, FIG. 8)? activated
